Would you mind telling me the reported % inhibition at 10 nM of each entry?
molecular target: human plasma kallikrein (human, UniProt P03952 20-390; P03952 391-638); experiment: cell-based or functional assay
Sequence (P03952 20-390, chain 1 of 2): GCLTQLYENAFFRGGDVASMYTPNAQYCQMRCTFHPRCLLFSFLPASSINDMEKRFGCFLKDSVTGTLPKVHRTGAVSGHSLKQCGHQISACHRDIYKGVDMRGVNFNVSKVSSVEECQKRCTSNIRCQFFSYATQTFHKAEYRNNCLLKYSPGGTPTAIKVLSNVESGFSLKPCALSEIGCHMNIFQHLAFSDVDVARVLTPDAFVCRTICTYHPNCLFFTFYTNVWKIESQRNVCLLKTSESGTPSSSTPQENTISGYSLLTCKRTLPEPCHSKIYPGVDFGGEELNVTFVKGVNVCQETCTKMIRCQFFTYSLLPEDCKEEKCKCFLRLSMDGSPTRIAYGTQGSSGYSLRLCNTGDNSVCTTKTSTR
Sequence (P03952 391-638, chain 2 of 2): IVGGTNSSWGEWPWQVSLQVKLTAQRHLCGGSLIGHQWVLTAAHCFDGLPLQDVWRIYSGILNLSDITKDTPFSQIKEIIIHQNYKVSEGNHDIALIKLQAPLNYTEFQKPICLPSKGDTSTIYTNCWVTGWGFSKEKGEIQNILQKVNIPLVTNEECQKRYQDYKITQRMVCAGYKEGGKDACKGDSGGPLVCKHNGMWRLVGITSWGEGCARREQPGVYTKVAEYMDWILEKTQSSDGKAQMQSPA
Numbers only, in %.

I have 3 binders here; please give me % inhibition at 10 nM for each one.
1. M208-F10 (Fab, V domains shown, Tested as Fab; printed HC runs into CH1; amber q written Q) VH: EVQLLESGGGLVQPGGSLRLSCAASGFTFSHYLMTWVRQAPGKGLEWVSYISPSGGHTIYADSVKGRFTISRDNSKNTLYLQMNSLRAEDTAVYYCARVARGIAARSRTSYFDQWGQGTLVTVSS VL: DIQMTQSPGTLSLSPGERATLSCRTSQFVNSNYLAWYQQTPGQAPRLLIYGASSRATGIPDRFSGTGYGTDFTLTISRLEPEDYGTYYCQQSSRTPWTFGQGTRVEIK
2. M209-G07 (Fab, V domains shown) VH: EVQLLESGGGLVQPGGSLRLSCAASGFTFSHYLMTWVRQAPGKGLEWVSYISPSGGHTIYADSVKGRFTISRDNSKNTLYLQMNSLRAEDTAVYYCARVARGIAARSRTSYFDTWGQGTLVTVSS VL: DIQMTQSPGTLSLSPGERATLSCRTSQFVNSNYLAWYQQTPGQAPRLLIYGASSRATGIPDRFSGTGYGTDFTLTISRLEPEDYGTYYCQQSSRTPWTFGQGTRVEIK
3. M209-E02 (Fab, V domains shown, Tested as Fab; printed HC runs into CH1; amber q written Q) VH: EVQLLESGGGLVQPGGSLRLSCAASGFTFSHYLMTWVRQAPGKGLEWVSYISPSGGHTIYADSVKGRFTISRDNSKNTLYLQMNSLRAEDTAVYYCARVARGIAARSRTILLDQWGQGTLVTVSS VL: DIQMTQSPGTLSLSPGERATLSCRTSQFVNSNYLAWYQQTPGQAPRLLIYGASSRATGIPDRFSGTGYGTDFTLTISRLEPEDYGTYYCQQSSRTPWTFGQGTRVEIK

[92.5, 89.8, 92.4]
